Organism: Rattus norvegicus
Assay: Open TG-GATES - Regimen: Daily Repeat
Assay type: toxicity, organism-based, Sprague-Dawley
Set-up: regimen Daily Repeat, gender Male, age 6 weeks
Details: in vivo, po, 0 mg/kg, […], tissue Plasma, route gavage, dose level Control, time 28 day
# ALT values compiled below
Express the result in IU/L but write the number alone.

Reference set (4 entries):
{"compound": "C=CCO", "ALT / IU/L": 33.6}
{"compound": "O=C1CN(/N=C/c2ccc(-c3ccc([N+](=O)[O-])cc3)o2)C(O)=N1", "ALT / IU/L": 30.6}
{"compound": "O=C1NC(=O)C(c2ccccc2)(c2ccccc2)N1", "ALT / IU/L": 38.8}
{"compound": "Cn1c(=O)c2c(ncn2C)n(C)c1=O", "ALT / IU/L": 43.6}

Turning now to a further compound:
query: Kindly indicate its recorded ALT. Item: COc1ccc(Cl)cc1C(=O)NCCc1ccc(S(=O)(=O)NC(=O)NC2CCCCC2)cc1 [GLYBURIDE]
result: 31.4

====

Species: Rattus norvegicus
Experiment: Open TG-GATES - Regimen: Daily Repeat
Assay type: toxicity, organism-based, Sprague-Dawley
Design: regimen Daily Repeat, gender Male, age 6 weeks
Details: in vivo, po, 0 mg/kg, […], tissue Blood, route gavage, dose level Control, time 14 day
Each record here notes measured Mono.
Write down the value, and be sure its unit follows.

Worked set:
{"molecule": "Cc1cnc(NC(=O)C2=C(O)c3ccccc3S(=O)(=O)N2C)s1", "measurement_name": "Mono", "result": "2.8%"}
{"molecule": "Cc1cccc(Nc2cc(Cl)nc(SCC(=O)O)n2)c1C", "measurement_name": "Mono", "result": "2.4%"}
{"molecule": "C=CCO", "measurement_name": "Mono", "result": "2.8%"}
{"molecule": "COc1ccc(O)c(C(C)(C)C)c1.COc1ccc(O)cc1C(C)(C)C [BUTYLATED HYDROXYANISOLE]", "measurement_name": "Mono", "result": "1.9%"}
{"molecule": "COc1ccc(Cl)cc1C(=O)NCCc1ccc(S(=O)(=O)NC(=O)NC2CCCCC2)cc1 [GLYBURIDE]", "measurement_name": "Mono", "result": "2.6%"}

query: Answer with the recorded Mono for the molecule listed here: Cn1cnc([N+](=O)[O-])c1Sc1ncnc2nc[nH]c12
result: 1.4%

query: Supply measured Mono of O=C1NC(=O)C(c2ccccc2)(c2ccccc2)N1 in your reply.
result: 2.2%

query: Identify Mono associated with the molecule O=C1CN(/N=C/c2ccc(-c3ccc([N+](=O)[O-])cc3)o2)C(O)=N1
result: 3.8%

query: Look up and report measured Mono for this entry: Cn1c(=O)c2c(ncn2C)n(C)c1=O
result: 2.4%

query: Output Mono of CS(=O)(=O)Nc1ccc([N+](=O)[O-])cc1Oc1ccccc1 [NIMESULIDE]
result: 6.2%

query: Quick one: give measured Mono for O=P1(N(CCCl)CCCl)NCCCO1 (stereo unspecified) [CYCLOPHOSPHAMIDE ANHYDROUS]
result: 2.2%

====

Species on record: Rattus norvegicus
Experiment: Open TG-GATES - Regimen: Daily Repeat
Assay type: toxicity, organism-based, Sprague-Dawley
Set-up: regimen Daily Repeat, gender Male, age 6 weeks
Conditions: in vivo, po, 0 mg/kg, […], tissue Plasma, route gavage, dose level Control, time 28 day
measurement_name: log10 TBIL (log10 of the value in mg/dL)
On a log10 scale: recorded TBIL, unit mg/dL.

Some compounds with known log10 TBIL results, for comparison:
{"compound": "CS(=O)(=O)Nc1ccc([N+](=O)[O-])cc1Oc1ccccc1 [NIMESULIDE]", "log10 TBIL": -0.52}
{"compound": "Cc1cnc(NC(=O)C2=C(O)c3ccccc3S(=O)(=O)N2C)s1", "log10 TBIL": -0.70}
{"compound": "C=CCO", "log10 TBIL": -1.00}
{"compound": "O=C1CN(/N=C/c2ccc(-c3ccc([N+](=O)[O-])cc3)o2)C(O)=N1", "log10 TBIL": -0.52}
{"compound": "Cn1cnc([N+](=O)[O-])c1Sc1ncnc2nc[nH]c12", "log10 TBIL": -2.00}

query: Specify reported log10 TBIL for the compound shown: Cn1c(=O)c2c(ncn2C)n(C)c1=O
result: -2.40

====

Organism: Rattus norvegicus
Test: Open TG-GATES - Regimen: Daily Repeat
Format: toxicity, organism-based, Sprague-Dawley
Parameters: regimen Daily Repeat, gender Male, age 6 weeks
Conditions: in vivo, po, 0 mg/kg, 72 h, tissue Plasma, route gavage, dose level Control, time 3 day
measurement_name: TP (g/dL)
Give the value in g/dL but do not write g/dL after it.

Answered examples (4):
{"molecule": "CS(=O)(=O)Nc1ccc([N+](=O)[O-])cc1Oc1ccccc1 [NIMESULIDE]", "TP / g/dL": 5.5}
{"molecule": "Cc1cnc(NC(=O)C2=C(O)c3ccccc3S(=O)(=O)N2C)s1", "TP / g/dL": 5.6}
{"molecule": "Cn1cnc([N+](=O)[O-])c1Sc1ncnc2nc[nH]c12", "TP / g/dL": 5.5}
{"molecule": "COc1ccc(Cl)cc1C(=O)NCCc1ccc(S(=O)(=O)NC(=O)NC2CCCCC2)cc1 [GLYBURIDE]", "TP / g/dL": 5.6}

Then there is this molecule:
query: Report TP, nothing else, for this molecule: O=C1NC(=O)C(c2ccccc2)(c2ccccc2)N1
result: 5.7

====

Organism: Rattus norvegicus
Test: Open TG-GATES - Regimen: Daily Repeat
Assay type: toxicity, organism-based, Sprague-Dawley
Parameters: regimen Daily Repeat, gender Male, age 6 weeks
Details: in vivo, po, 0 mg/kg, […], tissue Plasma, route gavage, dose level Control, time 28 day
Strictly below 4 meq/L in K: satisfied. Otherwise: not satisfied.

Some entries whose results are on file:
{"molecule": "Cn1cnc([N+](=O)[O-])c1Sc1ncnc2nc[nH]c12", "discrete_label": "satisfied"}
{"molecule": "O=C1CN(/N=C/c2ccc(-c3ccc([N+](=O)[O-])cc3)o2)C(O)=N1", "discrete_label": "not satisfied"}
{"molecule": "C=CCO", "discrete_label": "satisfied"}
{"molecule": "CS(=O)(=O)Nc1ccc([N+](=O)[O-])cc1Oc1ccccc1 [NIMESULIDE]", "discrete_label": "not satisfied"}

Could you now consider this next molecule?
query: Decide: K of Cc1cccc(Nc2cc(Cl)nc(SCC(=O)O)n2)c1C strictly below 4 meq/L?
result: satisfied

====

Species on record: Rattus norvegicus
Assay: Open TG-GATES - Regimen: Daily Repeat
Type: toxicity, organism-based, Sprague-Dawley
Parameters: regimen Daily Repeat, gender Male, age 6 weeks
Details: in vivo, po, 0 mg/kg, 72 h, tissue Plasma, route gavage, dose level Control, time 3 day
Let's look at some molecules and their measured GLC.
Write your answer as a measured quantity: the number, then the unit.

Use the examples below as a reference point.
{"molecule": "COc1ccc(Cl)cc1C(=O)NCCc1ccc(S(=O)(=O)NC(=O)NC2CCCCC2)cc1 [GLYBURIDE]", "GLC": "207 mg/dL"}
{"molecule": "O=C1CN(/N=C/c2ccc(-c3ccc([N+](=O)[O-])cc3)o2)C(O)=N1 [DANTROLENE]", "GLC": "200.6 mg/dL"}
{"molecule": "CS(=O)(=O)Nc1ccc([N+](=O)[O-])cc1Oc1ccccc1 [NIMESULIDE]", "GLC": "203 mg/dL"}
{"molecule": "C=CCO [ALLYL ALCOHOL]", "GLC": "225.8 mg/dL"}

Consider the additional molecule presented here.
query: Return GLC for the following molecule: Cn1cnc([N+](=O)[O-])c1Sc1ncnc2nc[nH]c12 [AZATHIOPRINE]
result: 194.4 mg/dL

====

Parameter PT: see the listing below.
Organism: Rattus norvegicus
Assay: Open TG-GATES - Regimen: Single
Type: toxicity, organism-based, Sprague-Dawley
Set-up: regimen Single, gender Male, age 6 weeks
Details: in vivo, po, 0 mg/kg, 3 h, tissue Blood, route gavage, dose level Control
Please state the figure in s; there is no need to write the unit.

Examples with their reported PT follow.
{"compound": "Cn1cnc([N+](=O)[O-])c1Sc1ncnc2nc[nH]c12 [AZATHIOPRINE]", "PT (s)": 15.7}
{"compound": "Cc1cccc(Nc2cc(Cl)nc(SCC(=O)O)n2)c1C [PIRINIXIC ACID]", "PT (s)": 12.3}
{"compound": "C=CCO [ALLYL ALCOHOL]", "PT (s)": 12.2}
{"compound": "COc1ccc(O)c(C(C)(C)C)c1.COc1ccc(O)cc1C(C)(C)C [BUTYLATED HYDROXYANISOLE]", "PT (s)": 11.5}
{"compound": "S=C=Nc1cccc2ccccc12 [1-NAPHTHYLISOTHIOCYANATE]", "PT (s)": 11.9}

query: Given the compound COc1ccc(Cl)cc1C(=O)NCCc1ccc(S(=O)(=O)NC(=O)NC2CCCCC2)cc1 [GLYBURIDE] , write its reported PT.
result: 12.3

query: # return recorded PT for entry CS(=O)(=O)Nc1ccc([N+](=O)[O-])cc1Oc1ccccc1 [NIMESULIDE]
result: 12.4

query: Let me know recorded PT for O=C1NC(=O)C(c2ccccc2)(c2ccccc2)N1 [PHENYTOIN] , thanks.
result: 13.9

query: Give me measured PT, please, for this compound: Cc1cnc(NC(=O)C2=C(O)c3ccccc3S(=O)(=O)N2C)s1 [MELOXICAM]
result: 11.8
